Entries with their measured IC50, system QPCT (rhQPCT) (Homo sapiens (Human), UniProt Q16769):

In [3]: df
Out[3]:
                                 smiles_str  quantity_name          result
0  COc1ccncc1-c1cccc(C#N)c1N1CCC(c2cncs2)CC1           IC50  100 to 1000 nM

Lab note: each compound below needs its IC50 filled in.
1. COCCOc1ccc(-c2ccc(F)nc2)c(N2CCC(c3nncn3C)CC2)c1C#N
2. Cn1cnnc1C1CCN(c2c(C#N)cccc2-c2cnc3nccn3c2)CC1
3. Cn1cnnc1C1CCN(c2c(C#N)cc(C#N)cc2-c2ccc(F)nc2)CC1
4. Cn1cnnc1C1CCN(c2c(C#N)ccnc2-c2ccc(F)nc2)CC1

Output:
["< 100 nM", "< 100 nM", "< 100 nM", "< 100 nM"]
